target: OCT1 Phe244Ala variant (Homo sapiens, UniProt O15245, F244A); experiment: Uptake screening (transport ratio over empty vector), HEK293 cells overexpressing OCT1 Phe244Ala variant; type: cell-based; set-up: expressed in transfected cells; conditions: Phe244Ala uptake relative to OCT1 WT
Metric: relative_Phe244Ala_uptake_in% (%)
Write the value in % as a bare number.

Worked cases, answers included:
| Compound | Metric | Measured Result |
| --- | --- | --- |
| CC(C)(C)NCC(O)c1ccc(O)c(CO)n1 (stereo not drawn) | relative_Phe244Ala_uptake_in% | 79.364 |
| CN1CCN(CC(=O)N2c3ccccc3C(=O)Nc3cccnc32)CC1 | relative_Phe244Ala_uptake_in% | 803.892 |
| Cc1cc(C(C)(C)C)cc(C)c1CC1=NCCN1 | relative_Phe244Ala_uptake_in% | 242.447 |
| CN(C)C(=N)N=C(N)N | relative_Phe244Ala_uptake_in% | 14.754 |
| C[n+]1ccc(-c2ccccc2)cc1 | relative_Phe244Ala_uptake_in% | 63.172 |
| COc1cc2c(cc1OC)[C@H](C)NCC2 | relative_Phe244Ala_uptake_in% | 32.677 |

Exercise: # relative_Phe244Ala_uptake_in% lookup, item COc1cc(CCN)cc(OC)c1OC
Key: 16.381

Exercise: # relative_Phe244Ala_uptake_in% lookup, item CC(NCCc1ccc(O)cc1)C(O)c1ccc(O)cc1 (stereo not drawn)
Key: 143.135

Exercise: # relative_Phe244Ala_uptake_in% lookup, item CC(C)(C)NCC(O)COc1cccc2c1CC(O)C(O)C2 (stereo not drawn)
Key: 142.415

Exercise: # relative_Phe244Ala_uptake_in% lookup, item C[C@H]1N=C(N(C)C)N=C(N)N1
Key: 25.831

Exercise: # relative_Phe244Ala_uptake_in% lookup, item CN(C)C(=O)Oc1cccc([N+](C)(C)C)c1
Key: 23.835

Exercise: # relative_Phe244Ala_uptake_in% lookup, item COc1ccc2c3c([nH]c2c1)C(C)=NCC3
Key: 53.184

Exercise: # relative_Phe244Ala_uptake_in% lookup, item CC(=O)Nc1ccc(OCC(O)CNC(C)C)cc1 (stereo not drawn)
Key: 83.607

Exercise: # relative_Phe244Ala_uptake_in% lookup, item CNC(=C[N+](=O)[O-])NCCSCc1ccc(CN(C)C)o1
Key: 66.532

Exercise: # relative_Phe244Ala_uptake_in% lookup, item Cc1ncccc1C(N)=O [Methylnicotinamide]
Key: -6.232

---

Quick reference: Mean_transport_ratio_Phe244Ala of the listed items.
target: OCT1 Phe244Ala variant (Homo sapiens, UniProt O15245, F244A); experiment: Uptake screening (transport ratio over empty vector), HEK293 cells overexpressing OCT1 Phe244Ala variant; type: cell-based; parameters: expressed in transfected cells; conditions: uptake ratio over empty vector, HEK293 cells overexpressing OCT1 Phe244Ala;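 further: stably transfected HEK293 cells, intracellular substrate quantified by HPLC-tandem mass spectrometry in cell lysates, uptake in HBSS+ buffer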

Worked cases, answers included:
| Compound | Measured Result |
| --- | --- |
| CC(CCc1ccc(O)cc1)NCC(O)c1ccc(O)cc1 (stereo not drawn) | 7.041 |
| c1cnn(C2CCNCC2)c1 | 1.119 |
| CNC[C@H](O)c1cccc(O)c1 [(R)-Phenylephrine] | 3.864 |

Exercise: # Mean_transport_ratio_Phe244Ala lookup, item O=C(O[C@H]1C[N+]2(CCCOc3ccccc3)CCC1CC2)C(O)(c1cccs1)c1cccs1 [(R)-Aclidinium]
Key: 6.14

Exercise: # Mean_transport_ratio_Phe244Ala lookup, item CC[N+](CC)(CC(=O)Nc1c(C)cccc1C)Cc1ccccc1
Key: 17.085
